Experiment: Toxicity in albino mouse after 72 hrs
Type: organism-based
Settings: in vivo
Reported LD50 at 72 h values for a set of molecules
Your answer is read as mg/kg, so omit the unit and give the number.

CC(=O)Nc1ccc(-c2ccc(/C=N/N3C(=O)NC(=O)C3O)o2)cc1 (stereo unspecified)	673
Nc1ccc(-c2ccc(/C=N/N3C(=O)NC(=O)C3O)o2)cc1 (stereo unspecified)	192
N#Cc1ccc(-c2ccc(/C=N/N3C(=O)NC(=O)C3O)o2)cc1 (stereo unspecified)	104
O=C1NC(=O)N(/N=C/c2ccc(-c3ccc(Cl)c(Cl)c3)o2)C1O (stereo unspecified)	209
O=C1NC(=O)N(/N=C/c2ccc(-c3ccc(F)cc3)o2)C1O (stereo unspecified)	784
O=C1NC(=O)N(/N=C/c2ccc(-c3cccc(C(F)(F)F)c3)o2)C1O (stereo unspecified)	563
CC(=O)Nc1ccc(-c2ccc(/C=N/N3CC(=O)NC3=O)o2)cc1	1140
Nc1ccc(-c2ccc(/C=N/N3CC(=O)NC3=O)o2)cc1	1040
O=C1CN(/N=C/c2ccc(-c3ccc(F)cc3)o2)C(=O)N1	1400
O=C1NC(=O)N(/N=C/c2ccc(-c3ccc(Cl)cc3)o2)C1O (stereo unspecified)	522

Query (molecule): `N#Cc1ccc(-c2ccc(/C=N/N3CC(=O)NC3=O)o2)cc1` ; field requested: LD50 at 72 h 2340

Could you tell me which LD50 at 72 h is on file for `O=C1CN(/N=C/c2ccc(-c3cccc(C(F)(F)F)c3)o2)C(=O)N1` ? 274

---

Assay: Therapeutic index, ratio of LD50 for albino mouse to ED50 for induction of straub tail relaxation in albino mouse
Assay type: organism-based
Conditions: in vivo, read-out: Ratio LD50/ED50
value_type: selectivity ratio
Answer field: number only, no words.

Endpoint output: selectivity ratio of O=C1NC(=O)N(/N=C/c2ccc(-c3ccc(Cl)c(Cl)c3)o2)C1O (stereo not given) . Value? 6.1

---

Organism: Mus musculus
Test: Induction of muscle incoordination in mouse after 30 mins by rotarod test
Assay type: organism-based, Muscle tissue
Conditions: in vivo, 0.5 h
value_type: ED50

Solved cases below.
CC(=O)Nc1ccc(-c2ccc(/C=N/N3CC(=O)NC3=O)o2)cc1	> 1000 mg/kg
CC(=O)Nc1ccc(-c2ccc(/C=N/N3C(=O)NC(=O)C3O)o2)cc1 (stereo unspecified)	> 1000 mg/kg
O=C1NC(=O)N(/N=C/c2ccc(-c3ccc([N+](=O)[O-])cc3)o2)C1O (stereo unspecified)	171 mg/kg
O=C1NC(=O)N(/N=C/c2ccc(-c3ccc(Cl)cc3)o2)C1O (stereo unspecified)	63 mg/kg
N#Cc1ccc(-c2ccc(/C=N/N3C(=O)NC(=O)C3O)o2)cc1 (stereo unspecified)	96 mg/kg

The record that follows has no ED50 shown yet.
Consider the molecule shown here: O=C1NC(=O)N(/N=C/c2ccc(-c3ccc(Cl)c(Cl)c3)o2)C1O (stereo unspecified) What is its recorded ED50? 10 mg/kg

---

Entries and their ED50 values follow.
Organism: Mus musculus
Experiment: Induction of muscle incoordination in mouse after 30 mins by rotarod test
Format: organism-based, Muscle tissue
Settings: in vivo, 0.5 h
State just the number; it will be interpreted in mg/kg.

# count of solved cases: 3
O=C1CN(/N=C/c2ccc(-c3ccc(Cl)c(Cl)c3)o2)C(=O)N1	181
O=C1CN(/N=C/c2ccc(-c3ccc(Cl)cc3)o2)C(=O)N1	40
O=C1NC(=O)N(/N=C/c2ccc(-c3ccc(F)cc3)o2)C1O (stereo not given)	240

Quick one: ED50 of `N#Cc1ccc(-c2ccc(/C=N/N3CC(=O)NC3=O)o2)cc1` ? 91

What value of ED50 has been recorded for this entry: O=C1NC(=O)N(/N=C/c2ccc(-c3cccc(C(F)(F)F)c3)o2)C1O (stereo not given) 85

Name the reported ED50 value associated with the molecule `O=C1CN(/N=C/c2ccc(-c3ccc([N+](=O)[O-])cc3)o2)C(O)=N1` 153

# lookup: ED50 of `O=C1CN(/N=C/c2ccc(-c3cccc(C(F)(F)F)c3)o2)C(=O)N1` 166

Record request: ED50 value, item `O=C1CN(/N=C/c2ccc(-c3ccc(F)cc3)o2)C(=O)N1` 369

Each recorded value in this set is attributed to ChEMBL document CHEMBL3272305.
